Here the recorded melting point is given for each entry.
measurement-label: melting point

[[record]]
compound = "C1CNCCCNCCCNCCCNC1"
result = "84 to 86 °C"

[[record]]
compound = "CCCn1c(-c2ccc(-n3ccnc3)cc2)cnc1[C@H](Cc1ccccn1)N(C=O)c1cc2cc(F)ccc2o1"
result = "77 to 81 °C"

[[record]]
compound = "COC(=O)C(=O)Nc1ccc(C#N)c(NC(=O)C(=O)OC)c1"
result = "155 to 160 °C"

[[record]]
compound = "COc1ccc2ccc(C(=O)CNC(=O)Cc3ccc4ccccc4c3)cc2c1"
result = "169 to 173 °C"

[[record]]
compound = "CN1CC(CCCl)Oc2ccc(Br)cc2C1=S (stereo unspecified)"
result = "118 to 120 °C"

[[record]]
compound = "CCC(=O)c1cc(C2(c3cccc(NC(=O)COC)c3)N=C(N)N(C)C2=O)cn1CC (stereo unspecified)"
result = "95 to 115 °C"

[[record]]
compound = "O=C(Nc1ccc(CN2CCCC2)cc1)C1=Cc2cc(-c3ccccc3)ccc2CC1"
result = "186 to 187 °C"

[[record]]
compound = "CC1(C)CCC(Cc2ccc(Cl)cc2)C1(O)CO (stereo unspecified)"
result = "103 to 104 °C"

[[record]]
compound = "CC(C)(C)c1ccc(C[C@@H](C(=O)O)[C@@H](O)c2ccc(F)cc2)cc1 (racemic)"
result = "102 to 104 °C"

[[record]]
compound = "Nc1cccc(C(=O)Nc2cccc3cc(Br)cnc23)c1"
result = "209 to 211 °C"

[[record]]
compound = "CC(=O)N1CCN=C1Nc1cc(C)nn1-c1ccccc1"
result = "153 to 162 °C"

[[record]]
compound = "N#Cc1cc(Br)c(OC(=O)OCI)c(Br)c1"
result = "103 to 105 °C"

[[record]]
compound = "CC(C)(C)c1cc(C(=O)O)ccc1OCc1ccccc1"
result = "213 to 214 °C"

[[record]]
compound = "NS(=O)(=O)NCc1csc2ccccc12"
result = "101 °C"

[[record]]
compound = "CC(C)(C)c1ccc(S(=O)(=O)N2c3ccccc3C[C@H]2C(=O)NCc2ccc(NCC(=O)O)cc2)cc1"
result = "110 °C"

[[record]]
compound = "CCCc1ccnc2c(=O)[nH]c(-c3cc(S(=O)(=O)N4CCN(CCO)CC4)ccc3OCC)nc12"
result = "187 to 188 °C"

[[record]]
compound = "CCn1cc(C(=O)O)c(=O)c2ccc(C=NNc3ccc(O)cc3)nc21"
result = "300 °C"

[[record]]
compound = "COc1ccc2c(c1)C(CCNC(=O)C(F)(F)F)C(c1ccccc1)C2 (stereo unspecified)"
result = "109 to 111 °C"

[[record]]
compound = "CN1CCC2=C(CCCC2)C1Cc1ccc(O)cc1 (single isomer, unassigned; (-))"
result = "119 to 120 °C"

[[record]]
compound = "O=C1N(C(c2ccccc2)c2ccccc2)c2cccc(F)c2C12COc1cc3c(cc12)OCCO3 (stereo unspecified)"
result = "196 to 198 °C"

[[record]]
compound = "OC(Cn1cncn1)(c1ccc(Cl)cn1)c1ccc(Cl)cn1"
result = "98 to 100 °C"


###

Here the recorded melting point is given for each entry.
measurement-label: melting point

[[record]]
compound = "COc1ccc(C=CC(=O)N2CCOCC2)cc1C(F)F"
measurement_label = "melting point"
result = "119 °C"

[[record]]
compound = "COC(=O)c1nc(OC)sc1-c1ccccc1"
measurement_label = "melting point"
result = "86 to 88 °C"

[[record]]
compound = "Clc1cc(Nc2nccc(-c3ccc(N4CCNCC4)nc3)n2)cc(Cl)c1Cl"
measurement_label = "melting point"
result = "208 to 211 °C"

[[record]]
compound = "CCOC(=O)COC1CCC2C3CCC4NC(=O)CCC4(C)C3CCC12C (stereo unspecified)"
measurement_label = "melting point"
result = "170 to 172 °C"

[[record]]
compound = "N#CCc1cnc(Cl)c(Cl)c1"
measurement_label = "melting point"
result = "72 to 75 °C"

[[record]]
compound = "Cc1cc(-c2coc3c(-c4ccc(F)cc4)c(-c4ccc(S(C)(=O)=O)cc4)nn23)ccc1Cl"
measurement_label = "melting point"
result = "202 to 205 °C"


###

Here the recorded melting point is given for each entry.
measurement-label: melting point

[[record]]
compound = "CCCCCc1c(-c2ccc(OC(F)F)c(OC3CC3)c2)[nH]c2cn[nH]c(=O)c12"
measurement_label = "melting point"
result = "191 to 193 °C"

[[record]]
compound = "CCCCn1ncc2cc(/C=C/c3ccc(O)cc3)ccc2c1=O"
measurement_label = "melting point"
result = "225 to 230 °C"

[[record]]
compound = "CCOC1CC2(C)C(CCC3C4CC5OC5C4(C)CC(N(C)C)C32)CC1O (stereo not given)"
measurement_label = "melting point"
result = "149 to 151 °C"

[[record]]
compound = "Cc1cc(=O)c(O)c(C(C)O)o1 (stereo not given)"
measurement_label = "melting point"
result = "127 to 130 °C"

[[record]]
compound = "C=CCC1(C(C)(C)C(=O)O)C(=O)NC(=O)NC1=O"
measurement_label = "melting point"
result = "202 to 203 °C"

[[record]]
compound = "CC(=NN(c1ccccc1)c1ccccc1)c1ccccn1"
measurement_label = "melting point"
result = "84 °C"

[[record]]
compound = "COc1ccc(N2CCN(c3cc4c(cc3-c3ccc(C)cc3)OC(C)(C)C4)CC2)cc1"
measurement_label = "melting point"
result = "187 to 190 °C"

[[record]]
compound = "COC(=O)C1=C(C)NC(CF)=C(C(=O)OC)C1c1c(F)c(F)c(F)c(F)c1F (stereo not given)"
measurement_label = "melting point"
result = "148 to 150 °C"

[[record]]
compound = "CCc1nc(-c2cccc(C)c2)c(-c2ccnc(N)c2)s1"
measurement_label = "melting point"
result = "144 to 146 °C"

[[record]]
compound = "CC(=O)c1cc2cc(O)c(Cl)c(Cl)c2s1"
measurement_label = "melting point"
result = "199 to 201 °C"


###

Here the recorded melting point is given for each entry.
measurement-label: melting point

[[record]]
molecule = "CC(=O)Nc1ncc(C23CCCN(CC2)C3)o1 (stereo unspecified)"
measurement_label = "melting point"
result = "142 to 143 °C"

[[record]]
molecule = "CC#CC(=O)c1c(-c2ccc(F)cc2)nn2c(Cl)cccc12"
measurement_label = "melting point"
result = "182 to 183 °C"

[[record]]
molecule = "CN(C)NC(=O)N(O)C1c2ccccc2Oc2ccccc21"
measurement_label = "melting point"
result = "196 to 198 °C"

[[record]]
molecule = "CCOC(=O)C1=C(C)NC(c2ccc(OC)cc2)=C(C(=O)OCC)C1c1cccc([N+](=O)[O-])c1 (stereo unspecified)"
measurement_label = "melting point"
result = "166 to 167 °C"

[[record]]
molecule = "CC1CCC2(C)C(=CCC3C4CC(C)C(=O)C4(C)CCC32)C1 (stereo unspecified)"
measurement_label = "melting point"
result = "109 to 110 °C"

[[record]]
molecule = "COc1ccc2c(Cc3c(Cl)cncc3Cl)nn(CC(=O)O)c(=O)c2c1"
measurement_label = "melting point"
result = "221 to 222 °C"

[[record]]
molecule = "CCOC(=O)C(=O)Nc1ccc(C)cc1[N+](=O)[O-]"
measurement_label = "melting point"
result = "126 °C"

[[record]]
molecule = "COC(=O)Cn1c(C(=O)NC(N)=S)cc2cc(C)ccc21"
measurement_label = "melting point"
result = "222 to 224 °C"

[[record]]
molecule = "CCCCCCCCCCCCCCn1c(=O)[nH]c2nc3ccccc3n2c1=O"
measurement_label = "melting point"
result = "193 °C"

[[record]]
molecule = "CS(=O)c1ccc(C#N)cc1 (stereo unspecified)"
measurement_label = "melting point"
result = "87 to 90 °C"

[[record]]
molecule = "O=C(O)CN1C(=O)C2(COc3cc4c(cc32)OCCO4)c2ccccc21 (stereo unspecified)"
measurement_label = "melting point"
result = "193 to 196 °C"

[[record]]
molecule = "COc1c(C)c2c(c(O)c1C/C=C(\\C)C(O)C(C)(C)C(=O)O)C(=O)OC2 (stereo unspecified)"
measurement_label = "melting point"
result = "180 to 181 °C"

[[record]]
molecule = "CCCCOc1c(CNC(=O)OC(C)(C)C)n(CC(C)(C)C)c(=O)c2cc(F)ccc12"
measurement_label = "melting point"
result = "149 to 150 °C"

[[record]]
molecule = "O=C(O)c1ccc(NCc2cccc(C(F)(F)F)c2)cn1"
measurement_label = "melting point"
result = "216 to 217 °C"

[[record]]
molecule = "CC(=O)Oc1cc(C(=O)N2CCC(C(=O)C3CCCCC3)CC2)c([N+](=O)[O-])cc1OC(C)=O"
measurement_label = "melting point"
result = "160 to 165 °C"

[[record]]
molecule = "CC(C)(C)c1cc(-n2ccc(=O)[nH]c2=O)cc(-c2ccc3cc(NS(C)(=O)=O)ccc3c2)c1Cl"
measurement_label = "melting point"
result = "> 280 °C"

[[record]]
molecule = "CN(C)C=Nc1ccc(-c2ccc(C(F)(F)F)cc2)cn1"
measurement_label = "melting point"
result = "154 °C"

[[record]]
molecule = "O=C(NCCc1cccc2ccccc12)C1CC1"
measurement_label = "melting point"
result = "117 to 118 °C"

[[record]]
molecule = "Cn1c2ccc(F)cc2c(=O)n2nc(C(N)=O)cc12"
measurement_label = "melting point"
result = "> 350 °C"

[[record]]
molecule = "COCO[C@@H](C(=O)OC)[C@@H](Sc1ccccc1[N+](=O)[O-])c1ccc(OC)cc1"
measurement_label = "melting point"
result = "155 to 158 °C"

[[record]]
molecule = "COc1cc(C(=O)O)c(Br)cc1C(=O)O"
measurement_label = "melting point"
result = "275 °C"


These measurements were taken from a melting point compilation (Tetko et al.; mined from patent text by program, amines drawn as free bases though some values may be those of a salt).
